# test method notes: AUC in Sprague-Dawley rat at 3 mg/kg, po
# Type: ADME, organism-based
# condition set: in vivo
metric name: AUC (ng·h/mL)

> print(dat)
                                smiles.data  metric.name  recorded.value
1  CC(=O)N1CCN(c2ccc(C(F)(F)F)cc2)c2ccc(-c3cccc([C@H](O)CO)n3)cc2C1          AUC             562
2  NC(=O)N1CCN(c2ccc(C(F)(F)F)cc2)c2ccc(-c3cccc([C@H](O)CO)n3)cc2C1          AUC             133

---

# System: MDR1
# test method notes: Apparent permeability from basolateral to apical side in MDCK cells expressing MDR1
# Assay type: ADME, cell-based, Canis lupus familiaris
# condition set: dog
metric name: Papp B→A (nm/s)

> print(dat)
                                smiles.data  recorded.value
1  CC(=O)N1CCN(c2ccc(C(F)(F)F)cc2)c2ccc(-c3cccc([C@H](O)CO)n3)cc2C1             283
